- study-system: Human recombinant FAP (Homo sapiens)
- test-name: FRET-based FAP protease activity assay
- Type: biochemical
- Design: purchased R&D systems 3715-SE
- test-conditions: pIC50 Category (Activity), FRET substrate, 37° C.
Numbered stars: 1 amine (or outer) side, 2 acyl side, 3 side chain; on linkers, the order of the positions; unused ones are H or OH. Bridge positions count the residues as written; N and C are the ends. Square brackets hold non-standard residues; d marks the D form. Peptide text beside a SMILES is read from it. * marks the point of attachment. X35 = O=C(O)CN(CCN(CCN(CC(=O)O)CC(=O)O)CC(=O)NCCCOCCOCCOCCCN*)CC(=O)O; mXylylene = c1cc(C[*:1])cc(C[*:2])c1; Suc = O=C(CCC(=O)[*:2])[*:1]; Nle = CCCC[C@H](N)C(=O)O
recorded-endpoint: IC50

Worked cases, IC50 given:
molecule="CCCCCC(=O)N[C@H]1CSCc2cc(CSCCNC(=O)CN3CCN4CCN5CCN(CC3)CC(=O)[O][In]([O]C(=O)C4)[O]C(=O)C5)cc(c2)CSC[C@@H](C(N)=O)NC(=O)[C@H](Cc2ccccc2)NC(=O)[C@H](CCC(N)=O)NC(=O)[C@H]([C@@H](C)O)NC(=O)[C@@H]2CCCN2C(=O)[C@@H]2CCCN2C1=O [3BP-3712]" result_value="< 10 nM"
molecule="CCCCCC(=O)N[C@H]1CSCc2cc(CSCCNC(=O)CN3CCN4CCN5CCN(CC3)CC(=O)[O][Lu]([O]C(=O)C4)[O]C(=O)C5)cc(c2)CSC[C@@H](C(=O)N[C@@H](CC(=O)O)C(=O)NCCCC(=O)NC(CCCNC(=N)N)C(=O)NCCCOCCOCCOCCCNC(=O)CCC(=O)NC(CCCCNC(=O)c2ccc(-c3c4ccc(=N)c(S(=O)(=O)O)c-4oc4c(S(=O)(=O)O)c(N)ccc34)c(C(=O)O)c2)C(N)=O)NC[C@H](Cc2ccccc2)NC(=O)[C@H](CCC(N)=O)NC(=O)C([C@@H](C)O)NC(=O)[C@@H]2CCCN2C(=O)[C@@H]2CCCC2C1=O (stereo partly drawn) [3BP-4372]" result_value="< 10 nM"

Okay, now this molecule:
Prompt: Need IC50 of CCCC[C@H](NC(=O)CCC(=O)NCCCOCCOCCOCCCNC(=O)CN(CCN(CC(=O)O)CC(=O)O)CCN(CC(=O)O)CC(=O)O)C(=O)N[C@H]1CSCc2cccc(c2)CSC[C@@H](C(=O)O)NC(=O)[C@H](Cc2ccccc2)NC(=O)[C@H](CCC(=O)O)NC(=O)[C@H]([C@@H](C)O)NC(=O)[C@@H]2CCCN2C(=O)[C@@H]2CCCN2C1=O [3BP-4229] ({X35-Suc}-[Nle]CPPTEFC-OH; linker 2-8 via mXylylene) , thanks.
Completion: 10 to 79.4 nM

* * *

- study-system: Human recombinant FAP (Homo sapiens, UniProt Q12884)
- test-name: FRET-based FAP protease activity assay
- Type: biochemical
- Parameters: purchased R&D systems 3715-SE
- test-conditions: pIC50 Category (Activity), recombinant human FAP, FRET substrate, 37° C.
Numbered stars: 1 amine (or outer) side, 2 acyl side, 3 side chain; on linkers, the order of the positions; unused ones are H or OH. Bridge positions count the residues as written; N and C are the ends. Peptide text beside a SMILES is read from it. * marks the point of attachment. NH(CH2)3NH(O2Oc(DOTA)) = O=C(O)CN1CCN(CC(=O)O)CCN(CC(=O)NCCOCCOCC(=O)NCCCN*)CCN(CC(=O)O)CC1; mXylylene = c1cc(C[*:1])cc(C[*:2])c1; Hexanoyl = CCCCCC(=O)*
recorded-endpoint: IC50

compound="CCCCCC(=O)N[C@H]1CSCc2cccc(c2)CSC[C@@H](C(N)=O)NC(=O)[C@H](Cc2ccccc2)NC(=O)[C@H](C)NC(=O)[C@H]([C@@H](C)O)NC(=O)[C@@H]2CCCN2C(=O)[C@@H]2CCCN2C1=O [3BP-3348] (Hexanoyl-CPPTAFC-NH2; linker 1-7 via mXylylene)" recorded_endpoint=IC50 result_value="> 1000 nM"

As a next step, examine the compound that follows.
Prompt: Please tell me: IC50 of CCCCCC(=O)N[C@H]1CSCc2cccc(c2)CSC[C@@H](C(=O)N[C@@H](CC(=O)O)C(N)=O)NC(=O)[C@H](Cc2ccccc2)NC(=O)[C@H](CCC(=O)NCCCNC(=O)COCCOCCNC(=O)CN2CCN(CC(=O)O)CCN(CC(=O)O)CCN(CC(=O)O)CC2)NC(=O)[C@H]([C@@H](C)O)NC(=O)[C@@H]2CCCN2C(=O)[C@@H]2CCCN2C1=O [3BP-3473] (Hexanoyl-CPPTE(NH(CH2)3NH(O2Oc(DOTA)))FCD-NH2; linker 1-7 via mXylylene) , system Human recombinant FAP (Homo sapiens, UniProt Q12884)?
Completion: 100 to 794 nM

* * *

- study-system: FAP-expressing human WI-38 fibroblasts (Homo sapiens, UniProt Q12884)
- Construct: FAP-expressing human WI-38 fibroblasts (ECACC) were cultured in EMEM; host or cells: WI-38 human fibroblasts
- Sequence (Q12884 whole entry): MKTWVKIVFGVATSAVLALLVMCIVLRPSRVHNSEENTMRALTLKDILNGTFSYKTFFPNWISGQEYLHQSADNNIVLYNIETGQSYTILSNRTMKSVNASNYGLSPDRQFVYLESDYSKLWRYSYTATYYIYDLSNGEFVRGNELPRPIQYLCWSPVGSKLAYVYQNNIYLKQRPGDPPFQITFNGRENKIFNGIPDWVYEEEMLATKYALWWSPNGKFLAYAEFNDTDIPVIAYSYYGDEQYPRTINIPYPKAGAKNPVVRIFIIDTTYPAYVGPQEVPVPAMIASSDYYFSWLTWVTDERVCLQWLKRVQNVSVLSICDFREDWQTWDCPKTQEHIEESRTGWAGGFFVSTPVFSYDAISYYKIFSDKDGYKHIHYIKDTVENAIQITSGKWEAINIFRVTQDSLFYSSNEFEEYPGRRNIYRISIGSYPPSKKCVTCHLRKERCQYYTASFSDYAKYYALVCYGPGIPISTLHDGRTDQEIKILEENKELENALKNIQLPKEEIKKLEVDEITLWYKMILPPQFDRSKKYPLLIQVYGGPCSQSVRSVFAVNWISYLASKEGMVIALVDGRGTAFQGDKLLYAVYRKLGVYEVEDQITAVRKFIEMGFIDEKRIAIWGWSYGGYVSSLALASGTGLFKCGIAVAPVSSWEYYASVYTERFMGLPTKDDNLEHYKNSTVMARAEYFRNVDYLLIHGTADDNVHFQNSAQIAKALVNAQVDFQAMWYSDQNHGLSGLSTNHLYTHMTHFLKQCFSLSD
- test-name: Competitive FACS binding assay
- test-conditions: pIC50 Category (FACS), competition with 3 nM Cy5-labeled compound, WI-38 fibroblasts, 4° C., 1 hour
pIC50: −log10 of the molar value. Numbered stars: 1 amine (or outer) side, 2 acyl side, 3 side chain; on linkers, the order of the positions; unused ones are H or OH. Bridge positions count the residues as written; N and C are the ends. Square brackets hold non-standard residues; d marks the D form. Peptide text beside a SMILES is read from it. * marks the point of attachment. X22 = O=C1CN2CCN3CCN(CC(=O)N4CCN(Cc5cc(C[*:1])cc(C[*:2])c5)CC4)CCN(CC2)CC(=O)[O][Lu]([O]1)[O]C(=O)C3; mXylylene = c1cc(C[*:1])cc(C[*:2])c1; 3Pal = N[C@@H](Cc1cccnc1)C(=O)O; Aic = NC1(C(=O)O)Cc2ccccc2C1; Hexanoyl = CCCCCC(=O)*
recorded-endpoint: pIC50

compound="CSCC[C@H](NC(C)=O)C(=O)N[C@H]1CSCc2cccc(c2)CSC[C@@H](C(=O)N[C@@H](CC(=O)O)C(=O)N[C@@H](Cc2c[nH]cn2)C(=O)NC2(C(=O)N[C@@H](CCCNC(=N)N)C(=O)N[C@@H](CC(=O)O)C(N)=O)Cc3ccccc3C2)NC(=O)[C@H](Cc2ccccc2)NC(=O)[C@H](CCC(=O)O)NC(=O)[C@H]([C@@H](C)O)NC(=O)[C@@H]2CCCN2C(=O)[C@@H]2CCCN2C1=O [3BP-3190] (Ac-MCPPTEFCDH[Aic]RD-NH2; linker 2-8 via mXylylene)" result_value="> 8.00"
compound="CCCCCC(=O)N[C@H]1CSCc2cc(cc(CN3CCN(C(=O)CN4CCN5CCN6CCN(CC4)CC(=O)[O][Lu]([O]C(=O)C6)[O]C(=O)C5)CC3)c2)CSC[C@@H](C(=O)N[C@@H](CC(=O)O)C(N)=O)NC(=O)[C@H](Cc2ccccc2)NC(=O)[C@H](CCC(N)=O)NC(=O)[C@H]([C@@H](C)O)NC(=O)[C@@H]2CCCN2C(=O)[C@@H]2CCCN2C1=O [3BP-3591] (Hexanoyl-CPPTQFCD-NH2; linker 1-7 via X22)" result_value="> 8.00"
compound="CCCCCC(=O)N[C@H]1CSCc2cccc(c2)CSC[C@@H](C(N)=O)NC(=O)[C@H](Cc2ccccc2)NC(=O)[C@H](CCC(=O)O)NC(=O)[C@H](C)NC(=O)[C@@H]2CCCN2C(=O)[C@@H]2CCCN2C1=O [3BP-3354] (Hexanoyl-CPPAEFC-NH2; linker 1-7 via mXylylene)" result_value="< 6.00"

Prompt: Lookup: pIC50 / FAP-expressing human WI-38 fibroblasts (Homo sapiens, UniProt Q12884) / CCCCCC(=O)N[C@H]1CSCc2cccc(c2)CSC[C@@H](C(N)=O)NC(=O)[C@H](Cc2ccccc2)NC(=O)[C@H](CCC(=O)O)NC(=O)[C@H]([C@@H](C)O)NC(=O)[C@@H]2CCCN2C(=O)[C@@H]2CCCN2C1=O [3BP-3287] (Hexanoyl-CPPTEFC-NH2; linker 1-7 via mXylylene)
Completion: 6.10 to 7.00

Prompt: Quick one: CSCC[C@H](NC(C)=O)C(=O)N[C@H]1CSCc2cccc(c2)CSC[C@@H](C(=O)N[C@@H](CC(=O)O)C(=O)N[C@@H](Cc2c[nH]cn2)C(=O)N[C@@H](Cc2cccnc2)C(=O)N[C@@H](CCCNC(=N)N)C(=O)N[C@@H](CC(=O)O)C(N)=O)NC(=O)[C@H](Cc2ccccc2)NC(=O)[C@H](CCC(=O)O)NC(=O)[C@H]([C@@H](C)O)NC(=O)[C@@H]2CCCN2C(=O)[C@@H]2CCCN2C1=O [3BP-3192] (Ac-MCPPTEFCDH[3Pal]RD-NH2; linker 2-8 via mXylylene)
Completion: > 8.00

Provenance of the data: patent US20220315554A1
